assay-notes: yeast display, Sf9 membrane polyspecificity reagent, FACS + sequencing; frameworks hold sequencing errors
quantity-kind: polyreactivity (PSR sort gate)

[
  {
    "macromolecule-sequence": "QVQLVESGGGLVQAGGSLRLSCAASGFTFYLNAMGWYRQAPGKERELVAAISYSDGSTYYADSVKGRFTISRDNAKNTVYLQMNRLKPEDTAVYFCAADTTDPGGAYQLMDYWGQGTQVTVSS",
    "experimental-value": "high polyreactivity"
  },
  {
    "macromolecule-sequence": "QVQLVESGGGLVQAGGSLRLSCAASGRTFISNAMGWYRQAPGKERELVATISRRGGITYYADSVKGRFTISRDNSKNTVYLQMNSLKPEDTAVFYCNARNYPQGIYYWGQGTQVTLSS",
    "experimental-value": "high polyreactivity"
  }
]
